Source of measurements: paper PMC3086094

Tested on: HCT-116 (human colon carcinoma)
test-name: MTS cytotoxicity assay, HCT-116
Assay type: cell-based
recorded-conditions: HCT-116, 72 h
reported-metric: IC50 (µM)

1. COc1cc([C@@H]2c3cc4c(cc3[C@@H](O[C@@H]3O[C@@H]5CO[C@@H](C)O[C@H]5[C@H](O)[C@H]3O)[C@H]3COC(=O)[C@H]23)OCO4)cc(OC)c1O [Etoposide] : 18.3

###

System: Caco-2 (human epithelial colorectal adenocarcinoma)
test-name: cells
recorded-conditions: Caco-2, 24 h
reported-metric: IC50

1. COc1cc([C@@H]2c3cc4c(cc3[C@@H](O[C@@H]3O[C@@H]5CO[C@@H](C)O[C@H]5[C@H](O)[C@H]3O)[C@H]3COC(=O)[C@H]23)OCO4)cc(OC)c1O [Etoposide] : 23.1 µM
